Experiment: NCI Yeast Anticancer Drug Screen. Data for the sgs1 strain (AID 173);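 note: 0% = growth of vehicle-only control cultures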
Conditions: S. cerevisiae sgs1 mutant, at 3.7 µM, hits give high values
About 79,000 compounds went through this panel and 15% of them were active in at least one assay; those are over-represented in the sample as a whole.
measure: growth inhibition (%)
Number only, in %; omit the unit.

Ask: Give a short answer stating reported growth inhibition for O=[N+]([O-])c1cccc2nc3ccccc3c(NCCC[N+]3([O-])CCCCC3)c12 .
Reply: 70

Ask: Give a short answer stating reported growth inhibition for CC[N+]1(C)CCC(O)(c2ccc(OC)cc2)C(C(=O)c2ccc(OC)cc2)C1 (stereo not given) .
Reply: -37

Ask: Give a short answer stating reported growth inhibition for Cc1nc2ccc(N=NN(C)C)cc2[nH]1 .
Reply: 39

Ask: Give a short answer stating reported growth inhibition for O=C1c2ccccc2C(=O)c2cc(CCl)ccc21 .
Reply: 2

Ask: Give a short answer stating reported growth inhibition for CC(C)=NOC(=O)Nc1ccc(Cl)cc1 .
Reply: -12

Ask: Give a short answer stating reported growth inhibition for c1ccc(CCN2CCc3ccccc3C2)cc1 .
Reply: 0

Ask: Give a short answer stating reported growth inhibition for CN1CCN(C(=O)/C=C/C(=O)c2ccccc2)CC1 .
Reply: 15

Ask: Give a short answer stating reported growth inhibition for Cc1c2ccnc(C(=O)NCCN(C)C)c2cc2c3cc(O)ccc3n(C)c12 .
Reply: 2

Ask: Give a short answer stating reported growth inhibition for O=[N+]([O-])c1ccc(N/N=C/Cc2ccccc2)c([N+](=O)[O-])c1 .
Reply: -1

Ask: Give a short answer stating reported growth inhibition for O=C(O)c1cc2ccc(Cl)cc2c(O)c1C1=CCCCC1 .
Reply: 23

Ask: Give a short answer stating reported growth inhibition for CC(=O)Nc1ccc2c(c1)-c1ccccc1C2=O .
Reply: -8

Ask: Give a short answer stating reported growth inhibition for CC(=O)OCC(C)Cc1cc2c(cc1Br)OCO2 (stereo not given) .
Reply: -14

Ask: Give a short answer stating reported growth inhibition for O=C1C(=O)c2ccccc2C(O)=C1C(C1=C(O)c2ccccc2C(=O)C1=O)c1ccc(Cl)cc1 .
Reply: 39

Ask: Give a short answer stating reported growth inhibition for c1ccc2c(OCC3CO3)cccc2c1 (stereo not given) .
Reply: 41

Ask: Give a short answer stating reported growth inhibition for CCc1c[n+]([O-])c(C)cc1[N+](=O)[O-] .
Reply: 31

Ask: Give a short answer stating reported growth inhibition for COC1CCC(O)C(/C=C/[N+](=O)[O-])C1 (stereo not given) .
Reply: 68

Ask: Give a short answer stating reported growth inhibition for O=[n+]1c2ccccc2n([O-])c2cc(Br)ccc21 .
Reply: 39

Ask: Give a short answer stating reported growth inhibition for Oc1cccc2cc(Cl)cnc12 .
Reply: -43

Ask: Give a short answer stating reported growth inhibition for OCc1ccccc1Cc1ccccc1 .
Reply: 2

Ask: Give a short answer stating reported growth inhibition for CC(=O)SC(C[N+](=O)[O-])c1ccccc1 (stereo not given) .
Reply: 41

Ask: Give a short answer stating reported growth inhibition for Oc1ccc(O)c(Cc2ccccc2)c1 .
Reply: 45

Ask: Give a short answer stating reported growth inhibition for O=c1[nH]c(-c2ccccc2)nc2c1sc1nc3ccccc3n12 .
Reply: -43

Ask: Give a short answer stating reported growth inhibition for Cc1nc2ccccc2nc1NNc1ccccc1 .
Reply: 1

Ask: Give a short answer stating reported growth inhibition for CCCCC(CC)C(=O)[O][Sn]([CH2]CCC)([CH2]CCC)[O]C(=O)C(CC)CCCC (stereo not given) .
Reply: -5

Ask: Give a short answer stating reported growth inhibition for COc1ccc(/C=C/c2sc3ccccc3[n+]2CCCCI)cc1OC .
Reply: 4

---

Assay: NCI Yeast Anticancer Drug Screen. Data for the rad14 strain (AID 159);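 note: 0% = growth of vehicle-treated control cultures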
Conditions: S. cerevisiae rad14 strain growth inhibition; at 100.0 µM
About 79,000 compounds went through this panel and 15% of them were active in at least one assay; those are over-represented in the sample as a whole. Calls of active or inactive are those of the source. No stated cut-off is given here; in the data, active means growth inhibition above about 70%; inactive means the rest.
Answer with one of the outcomes given here: active, inactive

Ask: Recorded call for CCO/C(C)=C(/C#N)C(N)=S ?
Reply: inactive

Ask: Recorded call for O=C(NNc1ccccc1)c1ccc(Cl)c(Cl)c1 ?
Reply: inactive

Ask: Recorded call for Cc1ccc(S/C(=C\C(=O)O)c2ccccc2)cc1 ?
Reply: inactive

Ask: Recorded call for Cc1ccc2c(c1)C1(SC(C)C(=O)N1c1ccc(Cl)cc1)C(=O)N2 (configuration not stated) ?
Reply: active

Ask: Recorded call for C[C@]12CC[C@H](O)CC1=CC[C@@H]1C2CC[C@]2(C)C(=O)NC(=O)CC12 (some centres not stated) ?
Reply: active

Ask: Recorded call for CCc1c[n+]([O-])c(C)cc1[N+](=O)[O-] ?
Reply: active

Ask: Recorded call for O=c1ccc(=O)n(-c2ccccc2)[nH]1 ?
Reply: active

Ask: Recorded call for OCC(CO)C(c1cccc2ccccc12)c1cccc2ccccc12 ?
Reply: active

Ask: Recorded call for O=C(CSC(=S)N1CCCCC1)Nc1nc2c(s1)CCCC2 ?
Reply: active

Ask: Recorded call for O=[N+]([O-])c1ccc2c(c1)/C(=N/N=C1c3ccccc3Cc3ccccc31)c1cc([N+](=O)[O-])cc([N+](=O)[O-])c1-2 ?
Reply: active

Ask: Recorded call for COC(=O)/C=C(/CC(=O)OC)C(=O)OC ?
Reply: inactive

Ask: Recorded call for O=c1nc2n(Cc3ccccc3)c3ccccc3nc-2c(=O)[nH]1 ?
Reply: inactive

Ask: Recorded call for O=C(O)c1cc2ccc(Cl)cc2c(O)c1C1=CCCCC1 ?
Reply: active

Ask: Recorded call for Cc1cc(S(=O)(=O)Nc2nnc3cnc4ccccc4n23)c(S)cc1Cl ?
Reply: inactive

Ask: Recorded call for C[C@@](O)(/C=C/[C@H]1CC=CC(=O)O1)[C@@H](C[C@@H](O)\C=C/C=C\C=C\CO)OP(=O)(O)O ?
Reply: active

Ask: Recorded call for Cn1c(-c2ccc(/C=N\N3CCN(/N=C/c4ccc(-c5c[n+]6ccccc6n5C)cc4)CC3)cc2)c[n+]2ccccc12 ?
Reply: active

Ask: Recorded call for CN(C)CCOC1(Cc2ccc(F)cc2)CCC(C(C)(C)C)CC1 (configuration not stated) ?
Reply: active

Ask: Recorded call for O=C1C=C(Cl)C(=O)N1c1cccc(Cl)c1 ?
Reply: active

Ask: Recorded call for Oc1[nH]c2ccccc2c1N=NC(=S)N1CCCCC1 ?
Reply: active

Ask: Recorded call for COc1nc2c(c(=O)n1C)N=C(c1ccccc1)[C@H](C(CC(=O)c1ccccc1)c1ccccc1)C(c1ccccc1)N2 (some centres not stated) ?
Reply: inactive

Ask: Recorded call for COc1ccc(C(=O)Oc2ccccc2Br)cc1 ?
Reply: inactive

Ask: Recorded call for CC1=C(C(=O)NCc2ccccc2)C(c2ccccc2)C(C(=O)NCc2ccccc2)=C(C)N1 ?
Reply: active

---

Assay: NCI Yeast Anticancer Drug Screen. Data for the wt1 strain (AID 149);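 note: 0% = growth of vehicle-treated wt1 cultures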
Settings: S. cerevisiae wt1 strain (SPY 50644) growth inhibition; at 1.2 µM; hits give high values
This is part of a sample that, as a whole, favours compounds with a hit. Of some 79,000 tested, about 15% had one in any assay.
measure: growth inhibition (%)
Number only, in %; omit the unit.

Ask: Give a short answer stating reported growth inhibition for CN(C)c1ccc(N=Nc2ccncc2)cc1 .
Reply: -7

Ask: Give a short answer stating reported growth inhibition for CCCCCCC(O)CNCc1ccnc2ccc(OC)cc12 (configuration not stated) .
Reply: 2

Ask: Give a short answer stating reported growth inhibition for S=C1SCN(C2CCCCC2)CN1C1CCCCC1 .
Reply: -21

Ask: Give a short answer stating reported growth inhibition for CCOC1(c2cccc([N+](=O)[O-])c2)c2ccccc2Oc2ccccc21 .
Reply: 2

Ask: Give a short answer stating reported growth inhibition for Cc1csc(=S)n1OC(=O)NC1CCCCC1 .
Reply: -5

Ask: Give a short answer stating reported growth inhibition for Cc1nc(Nc2ccccc2[N+](=O)[O-])sc1C(=O)CC(=O)C(=O)Nc1c(C(C)C)cccc1C(C)C .
Reply: 2

Ask: Give a short answer stating reported growth inhibition for CCOC(=N)c1ccc(O)c(OC)c1 .
Reply: -3

Ask: Give a short answer stating reported growth inhibition for N#CC(=Nc1ccccc1F)Nc1ccccc1F .
Reply: -5

Ask: Give a short answer stating reported growth inhibition for COc1cc(/C=N/Nc2nnc3c4ccccc4c4ncccc4c3n2)cc(OC)c1OC .
Reply: -22

Ask: Give a short answer stating reported growth inhibition for O=c1c2ccccc2nc(-c2ccccc2)n1O .
Reply: 12

Ask: Give a short answer stating reported growth inhibition for COc1ccc(/C=C/C(=O)c2ccccc2)cc1OC .
Reply: -2

Ask: Give a short answer stating reported growth inhibition for Cc1cc(S(=O)(=O)Nc2nnc3cnc4ccccc4n23)c(S)cc1Cl .
Reply: -1

---

Assay: NCI Yeast Anticancer Drug Screen. Data for the bub3 strain (AID 167)
Settings: S. cerevisiae bub3 mutant strain, at 100.0 µM, hits give high values
Compounds without any hit were thinned out: in the full panel of roughly 79,000, 15% have a hit.
measure: growth inhibition (%)
Number only, in %; omit the unit.

Ask: Give a short answer stating reported growth inhibition for Cc1ccc2c(c1)C1(SC(C)C(=O)N1c1ccc(Cl)cc1)C(=O)N2 (stereo unspecified) .
Reply: 99

Ask: Give a short answer stating reported growth inhibition for CCOC(=O)C(C(=O)OCC)=P(c1ccccc1)(c1ccccc1)c1ccccc1 .
Reply: 93

Ask: Give a short answer stating reported growth inhibition for CC1SC2(C(=O)Nc3ccc(Cl)cc32)N(c2ccc(Cl)cc2)C1=O (stereo unspecified) .
Reply: 97

Ask: Give a short answer stating reported growth inhibition for CCOC(=O)c1[nH]n(-c2ccccc2)c(=O)c1C=NC(=S)C(N)=S .
Reply: 97

Ask: Give a short answer stating reported growth inhibition for COc1oc(C(=O)NC2CCCCC2)c(-c2ccc(Cl)cc2)c1S(=O)(=O)c1ccccc1 .
Reply: 84

Ask: Give a short answer stating reported growth inhibition for CC(=O)Nc1ccc(/C=C/[N+](=O)[O-])cc1 .
Reply: 72

Ask: Give a short answer stating reported growth inhibition for Cc1ccc(NCCNCCO)c2c(=O)c3cc(O)ccc3sc12 .
Reply: 96

Ask: Give a short answer stating reported growth inhibition for Cc1cc2cc3cc(C)c(N)cc3nc2cc1N .
Reply: 92

Ask: Give a short answer stating reported growth inhibition for CCc1ccc2c(c1)N(CC(C)CN(C)C)c1ccccc1S2 (stereo unspecified) .
Reply: 74

Ask: Give a short answer stating reported growth inhibition for CN(C)C=NC1CCC(C(C)(C)C)CC1 (stereo unspecified) .
Reply: 99

Ask: Give a short answer stating reported growth inhibition for CC1OC(O[C@H]2/C=C/C=C/C=C/C=C/C=C/C=C/C=C/[C@H](C)[C@@H](O)[C@@H](C)[C@H](C)OC(=O)C[C@H](O)C[C@H](O)CC[C@@H](O)[C@H](O)C[C@H](O)C[C@]3(O)C[C@H](O)[C@@H](C(=O)O)[C@H](C2)O3)C(O)C(N)C1O (stereo partly specified) .
Reply: 98

Ask: Give a short answer stating reported growth inhibition for O=C(COC(=O)c1ccccc1)c1ccc(Br)cc1 .
Reply: 99

Ask: Give a short answer stating reported growth inhibition for CCCCCCCCCCCC1=NCCO1 .
Reply: 98

Ask: Give a short answer stating reported growth inhibition for COc1ccc2c(c1)n([O-])c1ccccc1[n+]2=O .
Reply: 91

Ask: Give a short answer stating reported growth inhibition for Cc1cc(C(C)(C)C)c(OCCCN2CCOCC2)c(C(C)(C)C)c1 .
Reply: 94

Ask: Give a short answer stating reported growth inhibition for CC(C)(C)c1ccc(NS(=O)(=O)c2ccc(N)cc2)cc1 .
Reply: 12

Ask: Give a short answer stating reported growth inhibition for O=[N+]([O-])c1cc(S(=O)(=O)Nc2ccccc2)ccc1Nc1ccccc1 .
Reply: 76

Ask: Give a short answer stating reported growth inhibition for Nc1nc2ccc(NCc3ccc(C(=O)NC(CCC(=O)O)C(=O)O)cc3)cc2c(=O)[nH]1 (stereo unspecified) .
Reply: 76

Ask: Give a short answer stating reported growth inhibition for Oc1ccc(O)c(Cc2ccccc2)c1 .
Reply: 99

Ask: Give a short answer stating reported growth inhibition for Cn1c(-c2ccc(/C=N\N3CCN(/N=C/c4ccc(-c5c[n+]6ccccc6n5C)cc4)CC3)cc2)c[n+]2ccccc12 .
Reply: 91

Ask: Give a short answer stating reported growth inhibition for Nc1cc(N)c(N=Nc2cccc3c(S(=O)(=O)O)cccc23)cc1N=Nc1cc([N+](=O)[O-])ccc1O .
Reply: 53
